Recorded values, source the supplement of paper PMC10567573.

Experiment: protein stability index of a GFP-peptide fusion (GPS, HEK-293T) (PSI 1-6); higher = more stable;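 also: 24-mer peptide tiles fused after GFP, lentivirally expressed, FACS-sorted into six equal bins by GFP/DsRed ratio, decoded by Illumina sequencing, PSI is the read-weighted mean bin number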
Conditions: treatment: DMSO; c terminus: a fixed tail appended
Rule: protein stability index of 4 or more gives 1.0; anything lower gives 0.0.

Task: Say whether DDEGWLHSGDLGQLDGLGFLYVTG [ACSBG2] shows protein stability index of 4 or more.
Output: 0.0

Task: Say whether LAPAGQTSEESRPRLSQLSVTDVT [TNXB] shows protein stability index of 4 or more.
Output: 1.0

Task: Say whether TEITELRRTLQGLEIELQSQLSMK [KRT13] shows protein stability index of 4 or more.
Output: 0.0

Task: Say whether TLPYPVKIKVRFSFFLQIYLIMIF [HACD3] shows protein stability index of 4 or more.
Output: 0.0

Task: Say whether QQSQGWVHYMIHEPEPHILLFRRP [CKS1B] shows protein stability index of 4 or more.
Output: 0.0

Task: Say whether MEALKLQPGLSFLNLGSGTGYLST [PCMTD1] shows protein stability index of 4 or more.
Output: 0.0

Task: Say whether KFTNKEWETIRSFKDEWTQLDMFY [AASDHPPT] shows protein stability index of 4 or more.
Output: 0.0

Task: Say whether SLISLSNNTGKNLELKFVSSLRRQ [TENT5D] shows protein stability index of 4 or more.
Output: 0.0

Task: Say whether PMYFFLGNLSVLDVGCISVTVPSM [OR3A1] shows protein stability index of 4 or more.
Output: 0.0

Task: Say whether GYRDYGHSRRHESYSRGYSYHDGY [RBMY1A1] shows protein stability index of 4 or more.
Output: 0.0

Task: Say whether EKELVFDIDMTDYDDVRRCCSSAD [PRIM1] shows protein stability index of 4 or more.
Output: 1.0

Task: Say whether PPARGTLKTSNLPEELRKVFITYS [TRAF3IP2] shows protein stability index of 4 or more.
Output: 0.0

Task: Say whether LRVMTTNIRSARGNNPNGREAKMI [ELOA2] shows protein stability index of 4 or more.
Output: 0.0

Task: Say whether LREIVHKPGPITLTVAKCWDPSPR [DVL3] shows protein stability index of 4 or more.
Output: 0.0

Task: Say whether CQMFLGKTEAEIAHIALETLEGHQ [FLOT1] shows protein stability index of 4 or more.
Output: 0.0

Task: Say whether SLKEELMCLKKNHEEEVSVLRCQL [KRT36] shows protein stability index of 4 or more.
Output: 0.0

Task: Say whether LSLLGKLTISAAFNIVYIYTSELY [SLC22A15] shows protein stability index of 4 or more.
Output: 0.0

Task: Say whether ESGPSAEKYSVATQLFIGGVTGWC [FUNDC2] shows protein stability index of 4 or more.
Output: 0.0

Task: Say whether LTQKRSQLVKKLNDSDHQSSTSPL [VPS39] shows protein stability index of 4 or more.
Output: 1.0

Task: Say whether QQFVIAGVLVEDSNNHHLMLEASE [ZBED1] shows protein stability index of 4 or more.
Output: 0.0

Task: Say whether SDLEDMEEEEGTRSPTLEPPRGRS [SMG5] shows protein stability index of 4 or more.
Output: 1.0

Task: Say whether LEDLERELDEPQHEMVAHRHRQEV [ZSCAN9] shows protein stability index of 4 or more.
Output: 1.0

Task: Say whether LHYQDTDSDVPEQRDSKCKVKWTH [MYBL2] shows protein stability index of 4 or more.
Output: 0.0

Task: Say whether AFPAAVSSMKKFCRPLLPSCTTRL [PSD2] shows protein stability index of 4 or more.
Output: 0.0

Task: Say whether SCGGDGGIVVWNMDVERQETPEWL [WDFY2] shows protein stability index of 4 or more.
Output: 0.0

Task: Say whether EGQARCLAHLGRHMEALEIAANLE [C8orf76] shows protein stability index of 4 or more.
Output: 0.0

Task: Say whether TIIPILQHLKYKEHPEALSCLLLQ [INTS3] shows protein stability index of 4 or more.
Output: 0.0

Task: Say whether DGIDRWIKEIDEHAPGVPKILVGN [RAB40B] shows protein stability index of 4 or more.
Output: 0.0

Task: Say whether DDATCRLYDLRADREVAIYSKESI [GNB5] shows protein stability index of 4 or more.
Output: 0.0

Task: Say whether CTFSLTHPANRSCRETGSFLDLFR [SLC22A15] shows protein stability index of 4 or more.
Output: 0.0

Task: Say whether PGEQGGGKLVLSSLPKRLCLVCGD [ESRRA] shows protein stability index of 4 or more.
Output: 0.0

Task: Say whether CGVILYILLVGYPPFWDEDQHRLY [CAMK2A] shows protein stability index of 4 or more.
Output: 0.0

Task: Say whether QHEEICLGLFTLILTEPAQAQKCY [INTS3] shows protein stability index of 4 or more.
Output: 0.0

Task: Say whether QEQNGRLQAELAAQEALREKAAAL [LRRC45] shows protein stability index of 4 or more.
Output: 1.0

Task: Say whether YLASLCMCFGPKKVKPAEAETAGA [SLC29A1] shows protein stability index of 4 or more.
Output: 0.0

Task: Say whether LTFAKSSWARQESLQERKQALYEY [AUP1] shows protein stability index of 4 or more.
Output: 0.0

Task: Say whether IIKQIPVEQMTKEERQAAQNECQV [NEK8] shows protein stability index of 4 or more.
Output: 1.0

Task: Say whether LEGFQAQGHPPSLFPPKAKSNQPK [ATE1] shows protein stability index of 4 or more.
Output: 1.0

Task: Say whether GAAQEALSIQLQPKETQPFPKSEQ [ZNF232] shows protein stability index of 4 or more.
Output: 1.0

Task: Say whether ERVEAFSDGVYAIVATLLILDICE [TMEM175] shows protein stability index of 4 or more.
Output: 0.0

Task: Say whether NVRDRDSGRNGEVSLDISPDLPFQ [PCDHGC5] shows protein stability index of 4 or more.
Output: 1.0

Task: Say whether VLKKLAQSRRTALATSPITVGDLG [YJU2B] shows protein stability index of 4 or more.
Output: 0.0

Task: Say whether FLDLMETIDKQREEMAKSSRASAA [LRRC45] shows protein stability index of 4 or more.
Output: 0.0

Task: Say whether LDDLSQKLKPLGEAEREFILNLKK [NLN] shows protein stability index of 4 or more.
Output: 0.0

Task: Say whether EPELQVGIDIMKTSFPGRGSIPEF [AASDHPPT] shows protein stability index of 4 or more.
Output: 0.0

Task: Say whether YPSLQAMGWFNNEVGSMKIQSGAW [CRYBA1] shows protein stability index of 4 or more.
Output: 0.0

Task: Say whether MACPYSVLISGDIKDRLKKKEDCL [FAM98B] shows protein stability index of 4 or more.
Output: 0.0

Task: Say whether AMDNHSDSEEELAAFCPQLDDSTV [RETREG3] shows protein stability index of 4 or more.
Output: 1.0

Task: Say whether ISGLRFETQLKTLAQFPNTLLGNP [KCNA1] shows protein stability index of 4 or more.
Output: 0.0

Task: Say whether KSLEGDLEDLKDQIAQLEASLAAA [LMNB1] shows protein stability index of 4 or more.
Output: 1.0

Task: Say whether LHLKRQPKRRWLFWNSPSSPSSSA [RHOBTB2] shows protein stability index of 4 or more.
Output: 0.0

Task: Say whether VLLPETQKRQQLSEDTLTIHGLPT [C22orf31] shows protein stability index of 4 or more.
Output: 0.0
